# System: BT-549
# recorded_conditions: 72 h
# EC50, CellTiter-Blue viability listing for each entry below
Supply the numeric figure in nM, leaving out any unit text.

• O=C1NC(=O)[C@@H](c2cn3c4c(cccc24)CCC3)[C@@H]1c1c[nH]c2ccccc12 [Tivantinib] = 340

Would you mind telling me what EC50, CellTiter-Blue viability value was observed for CN(C)C[C@@H]1CCn2cc(c3ccccc32)C2=C(C(=O)NC2=O)c2cn(c3ccccc23)CCO1 ?
8000

Entry CCCCCCCCc1ccc(CCC(N)(CO)CO)cc1 : reported EC50, CellTiter-Blue viability = ?
2220

Quick one: EC50, CellTiter-Blue viability of COc1ccc(-c2ccc3c(N4CCOC[C@@H]4C)nc(N4CCOC[C@@H]4C)nc3n2)cc1CO ?
61

I'd like to know its EC50, CellTiter-Blue viability. The molecule in question is Cn1cncc1[C@@](N)(c1ccc(Cl)cc1)c1ccc2c(c1)c(-c1cccc(Cl)c1)cc(=O)n2C
3730

Given the entry CN(C)CCN1C(=O)c2cccc3cc(N)cc(c23)C1=O [Amonafide] , report its measured EC50, CellTiter-Blue viability.
9680

###

# System: MFM-223
# assay_remarks: normalised response (% of control), CellTiter-Glo; higher = more viable cells (100 = DMSO, 0 = benzethonium chloride kill control)
# recorded_conditions: incubation time: 72 h
property_label: normalised response (%)
All answers are understood in %, so give the number only.

Worked set:
• CN(C)C[C@@H]1CCn2cc(c3ccccc32)C2=C(C(=O)NC2=O)c2cn(c3ccccc23)CCO1 [Ruboxistaurin] (10 nM) = 94.6
• C/C(=C\c1csc(C)n1)[C@@H]1C[C@@H]2O[C@]2(C)CCC[C@H](C)[C@H](O)[C@@H](C)C(=O)C(C)(C)[C@@H](O)CC(=O)O1 [Patupilone] (1 nM) = 101
• CC(C)(C#N)c1cc(Cn2cncn2)cc(C(C)(C)C#N)c1 [Anastrozole] (10 nM) = 104

Fill in the blank: the reported normalised response of NS(=O)(=O)OC[C@@H]1C[C@@H](n2ccc3c(N[C@H]4CCc5ccccc54)ncnc32)C[C@@H]1O [Pevonedistat] (1000 nM) is ____.
59.5

Given CN1CCN(CCOc2cc(OC3CCOCC3)c3c(Nc4c(Cl)ccc5c4OCO5)ncnc3c2)CC1 [Saracatinib] (1000 nM) , state its recorded normalised response.
89.7

###

normalised response overview
# Test system: DU-4475
# assay_remarks: normalised response (% of control), CellTiter-Glo; higher = more viable cells (100 = DMSO, 0 = benzethonium chloride kill control)
# recorded_conditions: incubation time: 72 h
Quick reminder: number only, in %, skip the unit.

# lookup: normalised response of c1ccc([C@H]2CN3CCSC3=N2)cc1 [Levamisole] (1000 nM)
99.2

Requested field: normalised response. Item: Nc1nc(OCc2cc(Br)cs2)c2[nH]cnc2n1 [Lomeguatrib] (10 nM)
104

Please give the measured normalised response for this compound: CC[C@]1(O)C[C@H]2CN(CCc3c([nH]c4ccccc34)[C@@](C(=O)OC)(c3cc4c(cc3OC)N(C=O)[C@H]3[C@@](O)(C(=O)OC)[C@H](OC(C)=O)[C@]5(CC)C=CCN6CC[C@]43[C@@H]65)C2)C1 [Vincristine] (0.1 nM)
106

Any idea what its normalised response is? The compound is C/C(=C\c1csc(C)n1)[C@@H]1C[C@@H]2O[C@]2(C)CCC[C@H](C)[C@H](O)[C@@H](C)C(=O)C(C)(C)[C@@H](O)CC(=O)O1 [Patupilone] (0.1 nM)
106

So what does the record say about normalised response for Cn1c(=O)n(-c2ccc(C(C)(C)C#N)cc2)c2c3cc(-c4cnc5ccccc5c4)ccc3ncc21 [Dactolisib] (100 nM) ?
41

Requested read-out: normalised response. Entry: CN(C)C[C@@H]1CCn2cc(c3ccccc32)C2=C(C(=O)NC2=O)c2cn(c3ccccc23)CCO1 [Ruboxistaurin] (1 nM)
99.8

Record request: normalised response value, item c1ccc([C@H]2CN3CCSC3=N2)cc1 [Levamisole] (1 nM)
105
